Test: yeast display, Sf9 membrane polyspecificity reagent, FACS + sequencing; frameworks hold sequencing errors

| biosequence | polyreactivity (PSR sort gate) |
| --- | --- |
| QDQLVESGGGLVQAGGSLRLSCAASGSTFKYYGMGWYRQAPGKERELVAAITSGGSTYDADSVKGRFTISRDNAKNTVYLQMNSLKPEDTAVYYCNTTAYSPTPYDYWGQGTQVTVSS | low polyreactivity |
| QVQLVESVGGLVQAGGSLRLSCAASGFIFRGYALGWYRQARGKEWELVAAMNAGDSTNYADSVKGRFTISRDTAKNTVYLQMNSLKPEETAVYYCAASIYAALNGGPGYDYWGQGTQVTVSS | low polyreactivity |
| QVQLVESGGGLVQAGGSLRLSCAASGRIFYHNAMGWYRQAPGKEREFVAAINWRGGNTYYADSVKGRFTISRDNAKITVYLQMNSLKPEDTAVYYCNALYKRYTDYDYWGQGTQVTVSS | high polyreactivity |
| QVQLVESGGGLVQAGGSLRLSCAASGFTSAPYAMGWYRQAPGKERELVAAITRTGGSTYYADSVKGRFTISRDNAKNTVYLQMNSLKPEDTAVYYCAVRLSGYQYHFRYGYWGQGTQVTVSS | high polyreactivity |
| QVQLVESGGGLVQAGGSLRLSCAASGRNYVYNAMGRYRQAPGKETELVAAITSSGGSTYYADSVKGRFTISRDNAKNSVDLQMNSLKPEDTAVYYCAADVQPDTRSTPEMDYWGQGTQVTVSS | low polyreactivity |

###

Assay: yeast display, Sf9 membrane polyspecificity reagent, FACS + sequencing; frameworks hold sequencing errors
readout_kind: polyreactivity (PSR sort gate)

| biosequence | readout_kind | result |
| --- | --- | --- |
| QVQLVESGGGLVQAGGSLRLSCAASGSIFLYYAMGWYRQAPGKERELVAAITGGGGTNYADSVKGRFTISRDNAKNTVYLQMNSLKPEDTAVYYCAADTSGQFPYSYYNYDYDYWGQGTQVTVSS | polyreactivity (PSR sort gate) | low polyreactivity |
| QVQLVESGGGLVQAGGSLRLTCAACGRIFNKYAMVWYIQAPGKERELVAAINGGGSTNYADSVKGRFTISRDNAKNTDYLQMNSLKAEDTAVYYCSTTPDGEGGYWGQGTQVTVSS | polyreactivity (PSR sort gate) | low polyreactivity |
| QVQLVESGGGIVQAGGSHRLSCAASGRIFGVNAMGWYRQATGKERELVAAISVSGDSTYYADSVKGRFTISRDNAKNTVYLQMNSLKPEDTAVYYCNAGYTFVPADLTDEYYWGQGTQVTVSS | polyreactivity (PSR sort gate) | low polyreactivity |
| QVQLVESGGGLVQAGGSLRLSCAASGSTFDRNAMGWYRPAPGKERELVAAISWTGTSTRYADSVKGRFTISRDNAKNTVYLHMNSLKPEDTAGYYCAARGYSYYQRLYYWGQGTQVTVSS | polyreactivity (PSR sort gate) | high polyreactivity |
| QVQLVESGGGLVQAGGSLRLSCASSGNTFERYAMGWYRQAPGKERELVAAITSSGGSTYYADSVKGRFTISRDNAKNTVYLQMNSLKPEDTAVYYCAASWRPRFYWGQGTQVTVSS | polyreactivity (PSR sort gate) | high polyreactivity |

###

Assay: yeast display, Sf9 membrane polyspecificity reagent, FACS + sequencing; frameworks hold sequencing errors

| biosequence | polyreactivity (PSR sort gate) |
| --- | --- |
| QVQLVESGVGLVQAGGSLRLSCAASGIIFDDYAMGWYRQAPGKERELVAGINESGDSTYYADSVKGRFTISRDNAKNTVYLQMNSLKPEDTAVYYCAAQLYYWWYDYWGQGTQVTVSS | high polyreactivity |
| QVQLVESGGGLVQAGGSLRLSCAASGFTFGHYVMGWSRQAPGKERELVAAITLSGGGTYYADSVKGRFTISRDNAKNTVYLQMNSLKPEDTAVYYCAAVGGEHAKKTYSRYKVDYWGQGTQVTVSS | low polyreactivity |
| QVQLVESGGGLVQAGGSLRLSCAASGFIIFRYAMGWYRQAPGKERELDAAITRSGGSTYYADSVKGRFTISRDNAKNSVYLQMNCLKPEDTAVYYCNASRQCFTYARMDYWGQGTQVTVSS | high polyreactivity |
| QVQLVESGGGLVQAGGSLRLSCAASGRISYYAMGWYRQAPGKERELVAVISSRGGSTYYADSVKGRFTISRDNAKNTVYLQMNSLKPEDTAVYYCAADLYYDAWRLYVLGYATMDYWGQGTQVTVSS | high polyreactivity |
| QVHLQESGVVLMQARGNLRMSCAASGYISTQYHMDWYRQAPGKERELVARIDYGAITNYADSVKGRFTIRRDNAKNTVYLQMTSLKPEDTAVYYCAVYSGDDYYHDYWGHGTQVTVSS | low polyreactivity |

Origin of the recorded values: the nanobody polyreactivity screen of Harvey et al. (2022)
